- subject of test: UniProtKB Q13547
- Sequence (Q13547 whole entry): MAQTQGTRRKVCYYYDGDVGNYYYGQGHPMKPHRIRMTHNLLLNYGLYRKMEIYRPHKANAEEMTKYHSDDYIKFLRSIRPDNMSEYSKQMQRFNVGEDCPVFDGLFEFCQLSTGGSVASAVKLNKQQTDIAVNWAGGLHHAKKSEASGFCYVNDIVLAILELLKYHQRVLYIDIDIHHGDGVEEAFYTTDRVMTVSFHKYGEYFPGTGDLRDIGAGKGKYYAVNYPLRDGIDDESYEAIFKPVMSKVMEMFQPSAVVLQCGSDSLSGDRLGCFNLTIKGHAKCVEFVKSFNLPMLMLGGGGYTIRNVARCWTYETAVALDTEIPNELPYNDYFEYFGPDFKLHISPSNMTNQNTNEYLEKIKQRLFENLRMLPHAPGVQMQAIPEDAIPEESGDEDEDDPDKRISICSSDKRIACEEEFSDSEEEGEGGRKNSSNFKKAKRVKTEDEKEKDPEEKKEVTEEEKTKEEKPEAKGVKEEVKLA
- experiment summary: HDAC inhibition assay, HDAC1
- Format: biochemical
- test conditions: Table 1B; read-out: IC50 (μM) HDAC1
# key: entry, value: IC50
// return numeric value only (unit: µM, not printed)

structure as smiles: CCCCN(Cc1ccc(C(=O)NO)cc1)C(=O)Nc1ncccn1
IC50 (µM): 2.74

Could you now consider this next compound?
Q: Give its IC50 value. Item: "CCCCN(Cc1ccc(C(=O)NO)cc1)C(=O)Nc1ccc2cn[nH]c2c1"
Ans: 0.721
